# system under test: UniProt:P56817
# Sequence (P56817 whole entry): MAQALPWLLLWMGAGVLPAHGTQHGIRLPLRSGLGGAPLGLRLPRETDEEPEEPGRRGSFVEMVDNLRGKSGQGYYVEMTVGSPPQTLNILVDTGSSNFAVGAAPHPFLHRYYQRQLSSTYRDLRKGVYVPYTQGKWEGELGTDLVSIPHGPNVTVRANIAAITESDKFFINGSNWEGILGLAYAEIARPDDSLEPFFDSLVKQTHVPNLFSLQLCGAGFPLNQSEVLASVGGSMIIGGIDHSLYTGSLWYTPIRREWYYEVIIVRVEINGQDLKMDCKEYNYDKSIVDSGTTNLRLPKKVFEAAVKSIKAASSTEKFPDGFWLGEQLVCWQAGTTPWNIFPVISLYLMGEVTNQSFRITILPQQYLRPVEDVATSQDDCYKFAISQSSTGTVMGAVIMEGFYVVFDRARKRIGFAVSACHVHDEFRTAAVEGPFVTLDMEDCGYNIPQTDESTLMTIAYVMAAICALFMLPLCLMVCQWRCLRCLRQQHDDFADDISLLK
# procedure text: Inhibition of BACE1 (unknown origin)
In this section we review reported log10 IC50 values for a set of compounds.
Response schema: value (number) is log10 of IC50 in units of nM.

As a guide, the following entries are already answered.
C[C@@H]1O[C@@H](O[C@@H]2[C@@H](O)[C@H](OCCc3ccc(O)c(O)c3)O[C@H](CO)[C@H]2OC(=O)/C=C/c2ccc(O)c(O)c2)[C@H](O)[C@H](O)[C@H]1O [ACETOSIDE]; 0.80
COc1cc(/C=C/c2nnc(-c3ccc(Cl)cc3Cl)o2)ccc1O; -0.06
COc1cc(/C=C/c2nnc(-c3ccc(Cl)cc3)o2)ccc1O; -0.20

Query block: Which log10 IC50 is reported for this compound? COc1cc(/C=C/c2nnc(-c3ccc(C(F)(F)F)cc3)o2)ccc1O
Result block: -0.59

Query block: Same thing, different compound: OCCc1ccc(O)c(O)c1 [HYDROXYTYROSOL]
Result block: 1.54

Query block: Same thing, different compound: CC(C)=CCC/C(C)=C/Cc1c(O)ccc2cc(-c3cc(O)cc(O)c3CC=C(C)C)oc12
Result block: 3.57

Query block: Same thing, different compound: O=c1c(/C=N/Nc2ccc(C(F)(F)F)cc2)coc2cc3oc(-c4cccc(F)c4)cc3cc12
Result block: 4.24

Query block: Same thing, different compound: COc1cc(O)c(C(=O)/C=C/c2ccc(F)cc2)cc1I
Result block: 1.40

Query block: Same thing, different compound: O=c1c(O)c(-c2ccc(F)cc2)oc2cc(F)c(I)cc12
Result block: 1.51

Values were extracted from ChEMBL document CHEMBL5241074.
